# credit: patent US20240109891A1

Biological target: KRAS G12C and SOS1 proteins (Homo sapiens, UniProt Q07889)
Sequence (Q07889 whole entry, stated change not applied): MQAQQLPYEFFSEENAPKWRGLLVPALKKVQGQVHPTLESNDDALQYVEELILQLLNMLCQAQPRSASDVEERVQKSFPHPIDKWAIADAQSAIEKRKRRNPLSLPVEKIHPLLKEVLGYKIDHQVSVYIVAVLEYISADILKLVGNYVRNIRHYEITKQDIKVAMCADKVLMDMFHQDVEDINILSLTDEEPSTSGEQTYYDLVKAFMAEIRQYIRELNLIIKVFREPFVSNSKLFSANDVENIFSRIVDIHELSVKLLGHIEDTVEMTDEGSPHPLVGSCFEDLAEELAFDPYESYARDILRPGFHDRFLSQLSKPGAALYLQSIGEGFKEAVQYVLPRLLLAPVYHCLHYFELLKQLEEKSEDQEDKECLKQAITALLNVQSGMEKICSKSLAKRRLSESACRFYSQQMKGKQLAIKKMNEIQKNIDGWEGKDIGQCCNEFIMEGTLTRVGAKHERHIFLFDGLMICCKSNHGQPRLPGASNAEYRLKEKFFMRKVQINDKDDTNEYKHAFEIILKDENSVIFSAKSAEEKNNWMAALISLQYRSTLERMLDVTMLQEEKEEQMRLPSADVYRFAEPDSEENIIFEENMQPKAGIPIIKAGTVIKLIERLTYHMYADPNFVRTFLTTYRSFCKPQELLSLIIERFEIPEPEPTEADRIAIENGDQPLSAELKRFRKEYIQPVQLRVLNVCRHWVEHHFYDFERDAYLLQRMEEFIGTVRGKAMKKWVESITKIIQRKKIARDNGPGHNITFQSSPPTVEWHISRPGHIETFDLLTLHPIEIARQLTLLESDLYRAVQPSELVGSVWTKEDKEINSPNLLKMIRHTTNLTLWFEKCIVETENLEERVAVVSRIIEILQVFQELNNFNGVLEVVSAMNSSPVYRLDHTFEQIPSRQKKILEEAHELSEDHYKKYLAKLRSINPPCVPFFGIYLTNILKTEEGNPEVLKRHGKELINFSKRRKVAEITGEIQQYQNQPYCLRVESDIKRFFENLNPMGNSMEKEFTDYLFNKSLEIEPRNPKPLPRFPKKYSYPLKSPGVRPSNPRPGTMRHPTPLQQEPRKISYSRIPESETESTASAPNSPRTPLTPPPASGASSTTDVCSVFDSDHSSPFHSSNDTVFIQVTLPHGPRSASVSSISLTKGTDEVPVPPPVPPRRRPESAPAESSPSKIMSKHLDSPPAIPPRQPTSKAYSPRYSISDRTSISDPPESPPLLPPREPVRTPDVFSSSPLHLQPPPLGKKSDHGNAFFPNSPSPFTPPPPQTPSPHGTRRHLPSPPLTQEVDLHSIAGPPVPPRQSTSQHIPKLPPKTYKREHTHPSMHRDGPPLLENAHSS
Test: KRAS-G12C/SOS1 binding assay (HTRF)
Conditions: Tag1-SOS1 / Tag2-KRAS G12C, 10 μM GTP
pIC50: −log10 of the molar value.
In this section we review reported pIC50 values for a set of compounds.

Below: 3 compounds and their reported pIC50.
Value of measured pIC50 for the entry COc1cc2c(cc1-c1ccc(=O)n(C)c1)c(N[C@H](C)c1cccc(C(F)(F)CO)c1)nc1ccnn12 : 6.30 to 7.00

Value of measured pIC50 for the entry COc1cc2c(cc1-c1ccc(=O)n(C)c1)c(N[C@H](C)c1cccc3c1CCC3(F)F)nc1ccnn12 : 6.30 to 7.00

Value of measured pIC50 for the entry Cc1nc(N[C@H](C)c2cccc3c2CCC3(F)F)c2cc(C3CCOCC3)c3nncn3c2n1 : > 7.00

Here's the next entry for you.
Value of measured pIC50 for the entry C[C@@H](Nc1nc2ccnn2c2cc(=O)n(C3CCOCC3)cc12)c1cccc(C(F)F)c1F : > 7.00

====

Molecular target: KRAS G12D and SOS1 proteins (Homo sapiens, UniProt Q07889)
Sequence (Q07889 whole entry, stated change not applied): as above
Experiment: KRAS-G12D/SOS1 binding assay (HTRF)
Settings: Tag1-SOS1 / Tag2-KRAS G12D, 10 μM GTP
quantity: IC50

Below: 6 molecules and their reported IC50.
Value of measured IC50 for the entry C[C@@H](Nc1nc2ccnn2c2cc(=O)n(C3(C)CC3)cc12)c1cccc(C(C)(F)F)c1F [Example 64] : < 100 nM

Value of measured IC50 for the entry Cc1nc(N[C@H](C)c2cccc(C(F)(F)CO)c2)c2cc(OC3CC(F)(F)C3)c3c(cnn3C)c2n1 [Example 39] : 100 to 500 nM

Value of measured IC50 for the entry C[C@@H](Nc1nc2ccnn2c2cc(=O)n(C3CCN(S(C)(=O)=O)CC3)cc12)c1cccc(C(F)(F)CO)c1 [Example 67] : 100 to 500 nM

Value of measured IC50 for the entry Cc1nc(N[C@H](C)c2cc(C(C)(C)O)cc(C(F)(F)F)c2)c2cc(-c3ccc(=O)n(C)c3)c3c(cnn3C)c2n1 [Example 26] : > 5000 nM

Value of measured IC50 for the entry CC(=O)N1CC[C@H](Oc2cc3c(N[C@H](C)c4cccc5c4CCC5(F)F)nc(C)nc3n3cnnc23)C1 [Example 21] : < 100 nM

Value of measured IC50 for the entry C[C@@H](Nc1nc2ccnn2c2cc(=O)n(C3CCOCC3)cc12)c1cccc(C(F)(F)CO)c1 [Example 60] : < 100 nM

---
Value of measured IC50 for the entry Cc1nc(N[C@H](C)c2cccc(C(F)(F)CO)c2)c2cc(-c3ccc(=O)[nH]c3)c3[nH]ncc3c2n1 [Example 28] : < 100 nM

====

In this section we review reported pIC50 values for a set of compounds.
Target: KRAS G12D and SOS1 proteins (Homo sapiens)
Experiment: KRAS-G12D/SOS1 binding assay (HTRF)
Conditions: Tag1-SOS1 / Tag2-KRAS G12D, 10 μM GTP
pIC50: −log10 of the molar value.

Value of measured pIC50 for the entry COc1cc2c(cc1O[C@H]1CCOC1)c(N[C@H](C)c1cc(N)cc(C(F)(F)F)c1)nc1cncn12 : 6.30 to 7.00

Value of measured pIC50 for the entry Cc1nc(N[C@H](C)c2cccc(C(F)(F)F)c2)c2cc(O[C@H]3CCOC3)c3nncn3c2n1 : 6.30 to 7.00

Value of measured pIC50 for the entry C[C@@H](Nc1nc2ccnn2c2cc(=O)n(C3(C)CC3)cc12)c1cccc(C(F)(F)F)n1 : 5.30 to 6.30

Value of measured pIC50 for the entry C[C@@H](Nc1nc2ccnn2c2cc(=O)n(C3CCN(C)CC3)cc12)c1cccc(C(F)(F)CO)c1 : > 7.00

---
Value of measured pIC50 for the entry Cc1nc(N[C@H](C)c2cccc(C(F)(F)CO)c2)c2cc(C3CCOCC3)c3nncn3c2n1 : > 7.00
